Recorded values, source PubChem BioAssay (NCI).

Please provide measured TGI for the entries that follow.
Tested on: SF-295 CNS
Experiment: NCI tumour cell line growth inhibition, 48 h

{"columns": ["compound", "TGI"],
 "data": [
  ["CC(=O)ON(C(C)=O)c1ccc(-c2nc3ccccc3s2)cc1C", "> 100 µM"],
  ["Cc1ccc(S(=O)(=O)NNC2Oc3cc4c(cc3C(c3ccccc3O)C2C)OCO4)cc1 (stereo not drawn)", "24.4 µM"],
  ["C=CCCCc1ccc(C(O)CCCCCCCCCCCC)o1 (stereo not drawn)", "46.6 µM"]
]}

Hi team, please reply with TGI for each item in this list.
1. CC(C)CCN[C@@H]1CCc2cc(O)c(N3CC(=O)NS3(=O)=O)c(F)c2C1
2. COc1ccc(CCNCCCC2c3ccccc3-c3ccccc32)cc1OC
3. CN1CC(=O)N(C)c2nc[nH]c2C1=O
4. COc1ccc(CCNC(=O)[C@H]2CCCC[C@@H]2CCO)cc1OC
5. CNCCC=C1c2ccccc2CCc2ccccc21

["> 100 µM", "29.2 µM", "> 100 µM", "> 100 µM", "27.8 µM"]

Provide the reported TGI of each entry below, same order.
1. C/C(=N\Nc1nc2ccccc2s1)c1cc(C)ncn1
2. COc1cc2c(c(OC3OC(CO)C(O)C(O)C3O)c1)C(=O)CC(c1ccc(O)cc1)O2 (stereo not drawn)
3. CN1C(Cl)=NS(=O)(=O)c2ccccc21
4. Cc1ccc(S(=O)(=O)c2c(N)n(CCN(C)C)c3nc4ccccc4nc23)cc1
5. O=C(O)c1ccccc1NC(=O)C1CCCCC1

1: 30.9 µM; 2: > 100 µM; 3: > 100 µM; 4: > 100 µM; 5: > 100 µM

----------
Test system: M14 melanoma
Experiment: NCI tumour cell line growth inhibition, 48 h
endpoint label: TGI

For every record below, what is its TGI?
1. C=C1c2c(Cl)ccc(O)c2C(O)=C2C(=O)[C@]3(O)C(O)=C(C(N)=O)C(=O)[C@@H](N(C)C)[C@@H]3[C@@H](O)[C@H]12
2. CCc1nc(N)nc(N)c1-c1ccc(Cl)c(N=CN(C)C)c1
3. c1ccc2cc3c(cc2c1)nc1ccccn13
4. S=C1N=C(Cl)/C(=C\c2ccccc2)N1
5. CCOC(=O)c1c(C)c(C)n2c1NC(=O)C2
6. CCCCNC(=S)/N=C/c1c(O)c2ccccc2[nH]c1=O
7. CC1=C(C(=O)OC(C)C)C(c2ccccc2C(F)(F)F)C(C(=O)OC(CO[N+](=O)[O-])CO[N+](=O)[O-])=C(C)N1 (stereo not drawn)
8. O=C(O)C1=C(C(=O)Nc2ccc(NC(=O)C3=C(C(=O)O)C4C=CC3C4)cc2)C2C=CC1C2

["5.79 µM", "> 100 µM", "> 100 µM", "> 100 µM", "> 100 µM", "> 10 µM", "23.9 µM", "> 100 µM"]

----------
Test system: 786-0 renal
Experiment: NCI tumour cell line growth inhibition, 48 h
endpoint label: TGI

{"columns": ["compound", "data value"],
 "data": [
  ["NCCSCCc1ccccc1", "> 100 µM"],
  ["C=C(C)C12CC3CC/C(=N/O)C(C1)C3(N1CCOCC1)C/C2=N/O (centres undefined)", "> 100 µM"],
  ["COC1OC2COC(c3ccccc3)OC2C(O)C1Br (centres undefined)", "> 100 µM"],
  ["O=C1NC(=O)C2C1N(Cc1ccccc1)C(=O)N2Cc1ccccc1 (centres undefined)", "> 100 µM"],
  ["CC1=C(C(=O)Nc2ccc([N+](=O)[O-])cc2)C(c2ccccc2F)C(C(=O)Nc2ccc([N+](=O)[O-])cc2)=C(C)N1", "> 100 µM"]
]}

// input: 5 compounds below; output: TGI for each
1. CCOC(=O)/C(C#N)=C/c1ccc2c(c1)CC1(C2)Cc2cc(CC)c(C(C)O)cc2C1 (centres undefined)
2. CCC1CN2CCC3(c4ccccc4)CC(C(=O)OC)=CC1C23 (centres undefined)
3. Cc1cc2c(cc1N)C(C)C1(CCC(=O)N2Cc2ccccc2)OCCO1 (centres undefined)
4. CC(=O)O[C@@H](C1C[C@@H](C)[C@H]2[C@@](O)(O1)[C@H](O)[C@@]1(C)C3=CC[C@H]4C(C)(C)[C@@H](OC5OCC(O)C(O)C5O)CC[C@@]45C[C@@]35CC[C@]21C)C(C)(C)O (some centres undefined)
5. O=C(Nc1ccc(Cl)c(Cl)c1)OCCN1c2ccccc2Sc2ccccc21

["39 µM", "31.9 µM", "> 100 µM", "63.6 µM", "> 10 µM"]

----------
Test system: SN12C renal
Experiment: NCI tumour cell line growth inhibition, 48 h
endpoint label: TGI

Some compounds with known TGI results, for comparison:
{"columns": ["compound", "target or test system", "data value"],
 "data": [
  ["CNC(=O)OCC1C2=C(C(=O)C(C)=C(N)C2=O)N2CC3C(N3C)C12OC (centres undefined)", "SN12C renal", "> 100 µM"],
  ["[Cl][Cd][Cl]", "SN12C renal", "158 µM"],
  ["COCCOC(=O)C(C)=[N+]=[N-]", "SN12C renal", "> 100 µM"]
]}

From here, focus on the item given below.
Report TGI for COc1cc2c(c(OC3OC(CO)C(O)C(O)C3O)c1)C(=O)CC(c1ccc(O)cc1)O2 (centres undefined) please.
> 100 µM

----------
Tested on: KM12 colon
Assay: NCI tumour cell line growth inhibition, 48 h
Please respond with reported TGI for every item in the list.
Give bare numbers, in µM.

Reference set (3 entries):
{"columns": ["compound", "unit", "TGI"],
 "data": [
  ["CC1=NN=C(N)NC1=CC(Sc1ccc(Cl)cc1)c1c(O)ccc2ccccc12 (stereo not drawn)", "µM", 36.9],
  ["Cc1ccc2c(=O)cc(-c3sc4ccccc4c3C)[nH]c2n1", "µM", 36.4],
  ["O=C1CC(c2ccc(Cl)cc2)Oc2ccccc21 (stereo not drawn)", "µM", 31.5]
]}

Next, consider the following compound.
Which value of TGI has been reported for C=CCN1CN(c2ccccc2)C2(CCN(CCCC3(c4ccc(F)cc4)OCCO3)CC2)C1=O in the records?
29.8

----------
Please respond with reported TGI for every item in the list.
System: SK-MEL-5 melanoma
Test: NCI tumour cell line growth inhibition, 48 h

{"columns": ["compound", "TGI"],
 "data": [
  ["Cc1cccc(Nc2cnc(N)nc2N)c1", "> 100 µM"],
  ["O=C(NNC(=O)c1ccccc1O)c1ccc(O)cc1", "> 100 µM"],
  ["CN(C)CCN(C(=Nc1ccccc1)N1CCCC1)c1ccccc1", "> 100 µM"],
  ["CC(Br)C(=O)Nc1ccc(C(=O)O)c(O)c1 (configuration not stated)", "> 100 µM"],
  ["COc1cc(C(=O)Oc2c(C#N)sc3c2c(=O)n(-c2ccccc2)c(=S)n3-c2ccccc2)cc(OC)c1OC", "31.6 µM"]
]}

I have 5 compounds here; please give me TGI for each one.
1. CCC(=O)C(C(C)/C=C/CCSc1ccccc1)C(O)CCCCCC(=O)OC (configuration not stated)
2. CN(C)C(=S)/N=c1\ss/c(=N\S(=O)(=O)c2ccccc2)n1N(C)C
3. Cc1nc(Nc2nc3ccccc3o2)nc(-c2cccc([N+](=O)[O-])c2)c1C(=O)Nc1ccc(F)c(Cl)c1
4. CC(=O)NNc1nc(C)c(C(=O)NNC(=O)C(=O)Nc2c(C)cccc2C(C)(C)C)s1
5. Cc1cccc2nc3cccc(C(=O)NCCN(C)C)c3nc12

["> 100 µM", "> 100 µM", "3.45 µM", "> 100 µM", "1.97 µM"]

Respectfully, I request TGI for each entry included below.
1. O=c1oc2ccc([N+](=O)[O-])cc2c(Nc2ccc3c(c2)S(=O)(=O)c2ccccc2O3)c1[N+](=O)[O-]
2. O=S(=O)(C/C(=N\O)c1ccccc1)c1ccccc1
3. C[C@H]1C(=O)CC[C@]2(C)CCC(C(C)(C)O)CC12O (some centres not stated)

["> 100 µM", "> 100 µM", "> 100 µM"]

Below is a list of compounds. For each, state its recorded TGI.
1. Clc1nc(Cl)c2ncn(Cc3ccc(Cn4cnc5c(Cl)nc(Cl)nc54)cc3)c2n1
2. CCCNc1nc2ccccc2c2c1S(=O)(=O)c1ccc(Cl)cc1C2=O
3. CCN(CC)CCN(C(=O)c1ccc(F)cc1)c1ccccc1N
4. Nc1nc(N)c2nc(CNc3ccc(C(=O)NC(CCCCNC(=O)c4ccccc4C(=O)O)C(=O)O)cc3)cnc2n1 (configuration not stated)
5. COC(=O)c1ccc(NCc2cc(O)ccc2O)cc1
6. S=C1N=C(Cl)/C(=C\c2ccccc2)N1

1: 20.8 µM; 2: > 50 µM; 3: > 10 µM; 4: > 100 µM; 5: 23.7 µM; 6: > 100 µM

Quick request: TGI for each listed item, please.
1. C=CCn1c(-c2ccc(-c3cs/c(=N\N=O)n3CC=C)cc2)cs/c1=N\N=O
2. COc1ccc(C(=O)Nc2ccc3oc(-c4ccccc4)nc3c2)cc1
3. CN1C(Cl)=NS(=O)(=O)c2ccccc21
4. Cc1cc(N(CCC#N)CCC#N)ccc1C=Nc1ccc(C(=O)NN2C(=O)/C(=C/c3ccc(N(CCC#N)CCC#N)cc3)N=C2c2cc([N+](=O)[O-])ccc2Cl)cc1
5. COc1ccc(CCNC(=O)[C@H]2CCCC[C@@H]2CCO)cc1OC
6. OC(C/C=N/Nc1ccccc1)(C(F)(F)Cl)C(F)(F)Cl

1: > 100 µM; 2: > 100 µM; 3: > 100 µM; 4: > 100 µM; 5: > 100 µM; 6: > 10 µM
